Test system: U2OS
Assay: Multiplex assay against U2OS
Assay type: toxicity, cell-based
Settings: human, 48 h, 10 µM, compound concentration 10 uM
property measured: Population Apoptotic (%)

CN(C)C/C=C/C(=O)Nc1ccc(C(=O)N2CCCC(Nc3ncc(Cl)c(-c4c[nH]c5ccccc45)n3)C2)cc1 (centres undefined)
100%
Cc1sc2c(c1C)C(c1ccc(Cl)cc1)=N[C@@H](CC(=O)NCCCCCCCCNC(=O)COc1cccc3c1C(=O)N(C1CCC(=O)NC1=O)C3=O)c1nnc(C)n1-2 (some centres undefined)
100%
COc1cc(Nc2ncc3c(n2)-c2ccc(Cl)cc2C(c2c(F)cccc2OC)=NC3)ccc1C(=O)O
88%

Hello, I am looking for reported Population Apoptotic (%) with U2OS for "NCCc1cn(S(=O)(=O)c2c(Cl)nc3sccn23)c2ccccc12.O=C(O)C(=O)O" . Could you help?
92%

---

System: U2OS
Assay: Multiplex assay against U2OS
Type: toxicity, cell-based
Conditions: human, 24 h, 10 µM, compound concentration 10 uM
Quick rule: Population Membrane Permeable-Phenotype (%) of at least 7% means true (1), below that means false (0).

CCOc1c2c(c(OCC)c3ncccc13)CN(c1ccc(CS(=O)(=O)NC(=O)Cc3ccccc3OC)cc1C)C2=O
false (0)
Cc1cc(C)c(NC(=O)C2CC3CCC2C3)c(C)c1 (stereo not given)
false (0)
CN1C[C@H](C(=O)N[C@]2(C)O[C@@]3(O)[C@@H]4CCCN4C(=O)[C@H](Cc4ccccc4)N3C2=O)C[C@@H]2c3cccc4[nH]cc(c34)C[C@H]21.CS(=O)(=O)O [DIHYDROERGOTAMINE MESYLATE]
false (0)

Does the molecule "NCCc1cn(S(=O)(=O)c2c(Cl)nc3sccn23)c2ccccc12.O=C(O)C(=O)O" have recorded Population Membrane Permeable-Phenotype (%) that is 7% or more?
true (1)

---

Tested on: HEK-293T
Assay: Multiplex assay against HEK293T
Format: toxicity, cell-based
Details: human, 48 h, 10 µM, compound concentration 10 uM
property measured: Population Healthy Nuclei (%)
One number for each entry, in %.

Here's what some known entries look like.
CC(=O)Nc1cccc2c1c(Sc1ccc(Cl)cc1)c(C)n2CC(=O)O [AZD1981]
78
O=C(Nc1cc(-c2ccccc2)nn1-c1ccccc1F)c1ccc([N+](=O)[O-])cc1
77

Please state Population Healthy Nuclei (%) for every compound in the list that follows.
1. COc1c(Nc2ccc(S(C)(=O)=O)nc2C)ncnc1OC1CCN(C(=O)OC(C)C)CC1 [ADP-597]
2. OCCCNc1cc(-c2ccnc(Nc3cccc(Cl)c3)n2)ccn1

[73, 46]

---

Could you please report measured Population Fragmented Nuclei (%) for the items listed next?
System: HEK-293T
Assay: Multiplex assay against HEK293T
Format: toxicity, cell-based
Conditions: human, 48 h, 10 µM, compound concentration 10 uM
Answers are plain numbers, in %.

Past entries and their recorded results:
c1cc(OCCCN2CCCCC2)ccc1CN1CCCCC1
13
Cc1c(CC(=O)O)c2cccnc2n1Cc1ccc(S(C)(=O)=O)cc1C(F)(F)F
14
Cc1nn(C)c2nc(NNC(=O)Nc3cc(Cl)nc(Cl)c3)cc(C(C)C)c12
9
CN1C[C@H](C(=O)N[C@]2(C)O[C@@]3(O)[C@@H]4CCCN4C(=O)[C@H](Cc4ccccc4)N3C2=O)C[C@@H]2c3cccc4[nH]cc(c34)C[C@H]21.CS(=O)(=O)O [DIHYDROERGOTAMINE MESYLATE]
15
Cn1ncnc1COc1nn2c(-c3cc(F)ccc3F)nnc2cc1C(C)(C)C
1.92

Hi! Can you tell me Population Fragmented Nuclei (%) for each of these compounds?
1. O=C(NCCN1CCC(n2c(=O)[nH]c3cc(Cl)ccc32)CC1)c1ccc(F)cc1 [HALOPEMIDE]
2. COc1ccccc1N1CCN(CCCCNC(=O)c2ccc3ccccc3c2)CC1.Cl

[14, 8]

---

System: Fibroblast
Experiment: Multiplex assay against human fibroblast
Format: toxicity, cell-based
Conditions: 12 h, 10 µM, compound concentration 10 uM
property measured: Population Hoechst High Intensity Objects (%)
Respond with the figure and its unit, in that order.

Reference set (4 entries):
Cn1ncnc1COc1nn2c(-c3cc(F)ccc3F)nnc2cc1C(C)(C)C
0%
CC(C)(O)c1cnc(N2C[C@@]3(CCC[C@](C)(Cn4cnc5ccc(C#N)cc54)C3)OC2=O)cn1
0%
CC(=O)NCC(=O)N1[C@@H]2CC[C@H]1c1ccc(Nc3ncc(C(F)(F)F)c(NC4CCC4)n3)cc12
0%
C[C@H](C[C@H](N)C(=O)O)C(=O)O [2S,4R-4-METHYLGLUTAMATE]
0%

For each of the compounds below, state Population Hoechst High Intensity Objects (%).
1. CN(C)CCCn1cc(C2=C(c3c[nH]c4ccccc34)C(=O)NC2=O)c2ccccc21
2. COc1cc(/C=C(\C#N)C(=O)Nc2nnc(C(F)(F)F)s2)ccc1OCc1ccc(C(F)(F)F)cc1C(F)(F)F
3. COCCNc1cc(NC(=O)N2CCCc3cc(CN4CCN(C)CC4=O)c(C=O)nc32)ncc1C#N
4. CCOC(=O)c1cnn(-c2ccc(NC(=O)C(Cl)=C(Cl)Cl)cc2)c1C(F)(F)F

0%
0%
0%
0%

Hi team, please reply with Population Hoechst High Intensity Objects (%) for each item in this list.
1. Nc1nccc(-c2ccn3c(N)nccc23)n1
2. O=C(Nc1cc(C(F)(F)F)ccc1N1CCCCC1)c1ccncc1
3. c1cc(OCCCN2CCCCC2)ccc1CN1CCCCC1

0%
0%
1%

---

Could you please report measured Population Membrane Permeable-Phenotype (%) for the items listed next?
Test system: HEK-293T
Assay: Multiplex assay against HEK293T
Type: toxicity, cell-based
Details: human, 48 h, 1 µM, compound concentration 1 uM
Answers are plain numbers, in %.

The following compounds have reported results that may help.
CCCN1CCC[C@@H]2Cc3n[nH]cc3C[C@H]21.Cl [QUINPIROLE HYDROCHLORIDE]
1
O=C(Nc1cc(-c2ccccc2)nn1-c1ccccc1F)c1ccc([N+](=O)[O-])cc1
2
Cc1nn(C)c2nc(NNC(=O)Nc3cc(Cl)nc(Cl)c3)cc(C(C)C)c12
1
COc1ccc2[nH]c(I)c(CCNC(C)=O)c2c1 [IODOMELATONIN]
1

I would be grateful if you could provide Population Membrane Permeable-Phenotype (%) for each of the following entries.
1. Cc1sc2c(c1C)C(c1ccc(Cl)cc1)=N[C@@H](CC(=O)NCCCCCCCCNC(=O)COc1cccc3c1C(=O)N(C1CCC(=O)NC1=O)C3=O)c1nnc(C)n1-2 (stereo partly drawn)
2. CN(C)C/C=C/C(=O)Nc1ccc(C(=O)N2CCCC(Nc3ncc(Cl)c(-c4c[nH]c5ccccc45)n3)C2)cc1 (stereo not drawn)
3. CN(C)C(=O)Cn1cc(-c2ccc(-c3nnc4ccccn34)cc2)cn1
4. Cc1[nH]nc2ccc(-c3cncc(OCC(N)Cc4c[nH]c5ccccc45)c3)cc12 (stereo not drawn)
5. CN1CCN(c2ccc(Nc3c4ccccc4nc4ccccc34)cc2)CC1.Cl.Cl.O
6. CCOc1c2c(c(OCC)c3ncccc13)CN(c1ccc(CS(=O)(=O)NC(=O)Cc3ccccc3OC)cc1C)C2=O
7. c1cc(OCCCN2CCCCC2)ccc1CN1CCCCC1 [JNJ-5207852]
8. COc1cc(Nc2ncc3c(n2)-c2ccc(Cl)cc2C(c2c(F)cccc2OC)=NC3)ccc1C(=O)O [ALISERTIB]

1. 0
2. 0
3. 0
4. 0
5. 0
6. 0
7. 1
8. 0

Record lookup: for HEK-293T, what Population Membrane Permeable-Phenotype (%) belongs to CC(=O)Nc1cccc2c1c(Sc1ccc(Cl)cc1)c(C)n2CC(=O)O [AZD1981] ?
1

---

Test system: U2OS
Test: Multiplex assay against U2OS
Assay type: toxicity, cell-based
Conditions: human, 24 h, 10 µM, compound concentration 10 uM
Field: Population Hoechst High Intensity Objects (%). Provide a value for each of the molecules that follow.
One number for each entry, in %.

Worked examples follow.
O=C(Nc1cc(C(F)(F)F)ccc1N1CCCCC1)c1ccncc1
0
CN(C)CCCn1cc(C2=C(c3c[nH]c4ccccc34)C(=O)NC2=O)c2ccccc21
0
COc1cc(Nc2ncc3c(n2)-c2ccc(Cl)cc2C(c2c(F)cccc2OC)=NC3)ccc1C(=O)O
4
Cl.O=S(=O)(c1cccc2c(I)cccc12)N1CCCNCC1
0
Cc1cc(Nc2ncc(Cl)c(Nc3ccccc3S(=O)(=O)C(C)C)n2)c(OC(C)C)cc1C1CCNCC1
0
CC(=O)Nc1cccc2c1c(Sc1ccc(Cl)cc1)c(C)n2CC(=O)O
0

Items follow; give Population Hoechst High Intensity Objects (%) for each.
1. COc1cc(/C=C(\C#N)C(=O)Nc2nnc(C(F)(F)F)s2)ccc1OCc1ccc(C(F)(F)F)cc1C(F)(F)F
2. COC(=O)c1ccc2c(c1)NC(=O)/C2=C(\Nc1ccc(N(C)C(=O)CN2CCN(C)CC2)cc1)c1ccccc1
3. COc1ccc2[nH]c(I)c(CCNC(C)=O)c2c1
4. CN1CCN(c2nc3cc(C(F)(F)F)ccc3n3cccc23)CC1.O=C(O)/C=C\C(=O)O.O=C(O)/C=C\C(=O)O
5. Cc1cccc(F)c1C(=O)Nc1cnc(-c2cc3c(cc2Cl)OC(F)(F)O3)cn1
6. CC(C)CNc1nc(N2CCN(CC3CCCOC3)CC2)ncc1C(=O)NCc1ccccc1 (stereo not given)
7. CC(=O)O[C@H]1C(=O)[C@@]2(C)[C@H]([C@H](OC(=O)c3ccccc3)[C@]3(O)C[C@H](OC(=O)[C@H](O)[C@@H](NC(=O)c4ccccc4)c4ccccc4)C(C)=C1C3(C)C)[C@]1(OC(C)=O)CO[C@@H]1C[C@@H]2O
8. CN1C[C@H](C(=O)N[C@]2(C)O[C@@]3(O)[C@@H]4CCCN4C(=O)[C@H](Cc4ccccc4)N3C2=O)C[C@@H]2c3cccc4[nH]cc(c34)C[C@H]21.CS(=O)(=O)O [DIHYDROERGOTAMINE MESYLATE]

1. 0
2. 0
3. 1
4. 3
5. 0
6. 0
7. 4
8. 1

What does the data say about its Population Hoechst High Intensity Objects (%)? Entry: "COCCNc1cc(NC(=O)N2CCCc3cc(CN4CCN(C)CC4=O)c(C=O)nc32)ncc1C#N"
0
